System: Klebsiella pneumoniae ATCC 13882
Experiment: onset of ureolytic pH increase; higher = more delayed ureolysis (inhibition)
Details: 10 mM
Where a name gives a salt, the structure may show the parent alone.
For each of the compounds below, state its onset of ureolytic pH increase.

query: Provide only the value of recorded onset of ureolytic pH increase for NC(=O)NO [Hydroxyurea]
result: > 15 h

query: In one line, give reported onset of ureolytic pH increase of the entry `N[C@@H](CS)C(=O)O` .
result: > 25 h

query: Give reported onset of ureolytic pH increase value for `O=[N+]([O-])C(Br)(CO)CO`
result: > 25 h

query: Give me measured onset of ureolytic pH increase, please, for this compound: `OB(O)O`
result: > 15 h

query: Return value of onset of ureolytic pH increase for input CCOC(=O)[C@@H](N)CS [L-cysteine ethyl ester hydrochloride] , no commentary.
result: > 15 h

query: State its onset of ureolytic pH increase for this compound: O=C(O)CCC(CC(=O)O)C(=O)O (stereo unspecified)
result: > 15 h

====

System: Klebsiella pneumoniae ATCC 13882
Experiment: final OD630 (growth) after 24 h; higher = more bacterial growth; extreme values may be limits of the assay
Conditions: 10 mM
For each entry below, report its final OD630 value.
Just the number.

query: Name the recorded final OD630 of the item NC(=O)NO [Hydroxyurea] in your answer.
result: 0.262

query: Complete the entry with final OD630 for `OCCS`
result: 0.155

query: Indicate its recorded final OD630; the molecule in question is [F-].[Na+] [Sodium flouride]
result: 0.335

query: In one line, give reported final OD630 of the entry `O=S(O)S(=O)(=O)O` .
result: 0.024

query: Provide one value: measured final OD630 of `Oc1ccc(Cl)cc1`
result: 0

query: Tell me measured final OD630 for `CNC(=O)NC` please.
result: 0

query: Provide one value: measured final OD630 of `NCCNCCNCCN`
result: 0

query: Answer with the recorded final OD630 of `CNC(N)=O` only.
result: 0.419

query: Using known records, supply final OD630 for O.O.O.O.O.O.O.O=S(=O)([O-])[O-].[Mg+2] [Magnesium sulfate]
result: 0.521
